Assay: Cytotoxicity against human HeLa cells assessed as morphological changes
Assay type: cell-based
READOUT_TYPE: MCC

The compound identified as Nc1nc(CC(O)c2ccccc2C(F)(F)F)c(Br)c(=O)[nH]1 (stereo unspecified) registered its MCC at > 100 µM

The compound identified as NC(=O)c1ncn([C@@H]2O[C@H](CO)[C@@H](O)[C@H]2O)n1 registered its MCC at > 250 µM

The compound identified as CCCCCc1nc(N)[nH]c(=O)c1Br registered its MCC at 20 µM

The compound identified as Nc1ncnc2c1ncn2C[C@H](O)CO [(S)-DHPA] registered its MCC at > 250 µM

The compound identified as CCCc1nc(N)[nH]c(=O)c1Br registered its MCC at > 100 µM

The compound identified as Nc1nc(CC(O)c2ccc(Cl)cc2)c(Br)c(=O)[nH]1 (stereo unspecified) registered its MCC at > 100 µM

Reference source: ChEMBL document CHEMBL2417481
